From: ChEMBL document CHEMBL1130507

Target: Farnesyltransferase (Saccharomyces cerevisiae S288c, UniProt P22007+P29703)
Sequence (P29703 whole entry): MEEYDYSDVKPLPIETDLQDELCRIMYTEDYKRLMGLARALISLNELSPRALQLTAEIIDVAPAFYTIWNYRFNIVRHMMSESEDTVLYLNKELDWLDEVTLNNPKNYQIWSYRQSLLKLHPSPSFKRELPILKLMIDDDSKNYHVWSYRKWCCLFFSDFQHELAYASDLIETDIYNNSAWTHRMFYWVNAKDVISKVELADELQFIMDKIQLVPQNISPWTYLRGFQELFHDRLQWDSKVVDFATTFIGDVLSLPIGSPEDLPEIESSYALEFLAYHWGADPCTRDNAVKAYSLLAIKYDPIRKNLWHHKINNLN
Sequence (P22007 whole entry): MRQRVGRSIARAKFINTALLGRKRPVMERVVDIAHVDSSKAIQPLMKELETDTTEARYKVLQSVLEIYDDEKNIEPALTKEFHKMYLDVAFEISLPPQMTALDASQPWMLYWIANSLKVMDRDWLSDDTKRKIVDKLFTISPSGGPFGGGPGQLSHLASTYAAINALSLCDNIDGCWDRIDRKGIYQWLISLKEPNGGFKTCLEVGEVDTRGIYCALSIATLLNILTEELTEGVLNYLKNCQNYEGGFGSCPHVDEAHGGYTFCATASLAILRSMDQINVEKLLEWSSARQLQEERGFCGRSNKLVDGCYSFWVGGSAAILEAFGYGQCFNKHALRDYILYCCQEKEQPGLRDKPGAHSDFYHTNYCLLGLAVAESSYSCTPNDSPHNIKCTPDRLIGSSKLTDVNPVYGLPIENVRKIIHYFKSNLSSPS
Assay: Inhibition of yeast Farnesyl transferase
Can you tell me Ki for the items I'm about to list?
Return type: number; implicit unit nM.

Query string: Record request: Ki value, item "C/C(=C\COP(=O)(O)OP(=O)(O)O)COC(=O)c1cccc(C(=O)c2ccccc2)c1"
Result string: 960

Query string: And then "C/C(=C\COP(=O)(O)OP(=O)(O)O)CC/C=C(\C)CNC(=O)c1cccc(C(=O)c2ccccc2)c1" , what is it?
Result string: 700

Query string: And then "C/C(=C\COP(=O)(O)OP(=O)(O)O)CC/C=C(\C)COC(=O)c1cccc(C(=O)c2ccccc2)c1" , what is it?
Result string: 380

Query string: And then "C/C(=C\COP(=O)(O)OP(=O)(O)O)CNC(=O)c1cccc(C(=O)c2ccccc2)c1" , what is it?
Result string: 6000
